Assay: solvent given as SMILES
Details: in ClCCl
parameter: absorption maximum (nm)

A: C[Si](C)(C)c1ccc2ccc3c([Si](C)(C)C)ccc4ccc1c2c43
B: COCCOCCOCCOc1ccc(/C=C/C2=[N+]3C(=C(c4cc(OC)cc(OC)c4)c4c(C)c(I)c(/C=C/c5ccc(OCCOCCOCCOC)cc5)n4[B-]3(F)F)C(C)=C2I)cc1
Asked: Of A versus B , which is the one with smaller reported absorption maximum? Please reply using the label of the selected record.
Given back: A
(A: 352 nm, B: 664 nm)

---

Test: solvent given as SMILES
Conditions: in ClC(Cl)Cl
parameter: absorption maximum (nm)

{"compound-structure-string": "CCN(CC)c1ccc2cc(/C=C/C(O)=C/C(C)=O)c(=O)oc2c1", "reading": 455}
{"compound-structure-string": "CC1(C)CCc2c(c3ccccc3c3nc4c(nc23)c2c(c3ccccc34)OC(C)(C)CC2)O1", "reading": 437.06}
{"compound-structure-string": "CCOC(=O)/C(C)=C/C1=C(c2ccc(C)cc2)C2=Nc3c(-c4ccc(C)cc4)c(Br)c(-c4ccc(C)cc4)n3[B-](F)(F)[N+]2=C1c1ccc(C)cc1", "reading": 661}
{"compound-structure-string": "CN(C)CCNCc1c2ccccc2cc2ccccc12", "reading": 367}
{"compound-structure-string": "F[B-]1(F)n2cccc2C(c2ccccc2)=C2C=CC(c3ccc(OC4=[N+]5C(=C(c6ccccc6)c6cc(Br)c(Br)n6[B-]5(F)F)C=C4Br)cc3)=[N+]21", "reading": 562}
